target.of.assay: Protein translocase subunit SecA (Escherichia coli (strain K12))
run.description: Assay to Identify E. coli SecA ATPase Inhibitors
Type: functional
Design: scale not given: direction of the effect not stated beside the values
setup.conditions: 30 µM
Results with a measured potency or affinity are listed apart.
Assignment: determine reported Percent Effect for the given molecules.
Give bare numbers, in %.

- molecule: "O=C(c1ccc(O)cc1)N1CCN(C(=O)c2ccc3c(c2)COC3)CC1"
  uom: "%"
  Percent Effect: -4.15

# map each molecule to its Percent Effect
1. COCc1nc(CNC2CCSCC2)no1
2. CC(=O)Nc1c(C)cnn1Cc1cc(F)ccc1F
3. COc1cccc2c1ccn2CC(=O)N[C@@H](CCSC)C(=O)O
4. Cc1cccc(OCCC(=O)N2CCCN(CC(N)=O)CC2)c1C
5. Cc1ncc(CNC(=O)N(C)C2CCN(c3ccccc3)C2=O)s1 (stereo unspecified)

[-6.18, -3.16, 1.36, -3.47, -4.68]

###

Please respond with reported Percent Effect for every item in the list.
target.of.assay: Chromo domain-containing protein 1 (Saccharomyces cerevisiae (strain ATCC 204508 / S288c) (Baker's yeast))
run.description: ScCHD-1 Enzyme Inhibition Assay; also: in the data most compounds retested in dose-response had high values
Format: functional
Design: scale not given: direction of the effect not stated beside the values
setup.conditions: 30 µM
Give bare numbers, in %.

- molecule: "Cc1cnccc1N1CCCN(C(=O)CCCS(N)(=O)=O)CC1"
  measured.metric: "Percent Effect"
  number: 0.551
- molecule: "CCCc1nc(C(=O)N2CCCn3nc(CCC(=O)O)cc3C2)cs1"
  measured.metric: "Percent Effect"
  number: -5.37
- molecule: "NC(=O)c1ccc(N2CCCCC2)c(NC(=O)c2cc(Br)ccc2F)c1"
  measured.metric: "Percent Effect"
  number: 24.8
- molecule: "Cc1cccn2cc(CC(=O)N3CCCC(n4cncn4)C3)nc12 (stereo unspecified)"
  measured.metric: "Percent Effect"
  number: -6

Consider the following items and state reported Percent Effect for each.
1. CC(C)c1nc(C2CCCN2Cc2ccccc2C#N)no1 (stereo unspecified)
2. Cc1cc(C2CCCN2Cc2cc(=O)n(C)c(=O)n2C)on1 (stereo unspecified)

1: 73.9; 2: -4.48

###

target.of.assay: AMP-activated protein kinase, AMPK (Homo sapiens) (UniProt P54646+O43741+P54619+Q9UGJ0+Q9Y478+Q13131+Q9UGI9)
run.description: AMP-dependent Kinase enzyme assay. An in vitro enzyme assay that detects ADP turnover that is directly proportional to AMPK activity. This uses naive AMPK that is activated during the assay with MK-8722
Format: functional
Design: scale not given: direction of the effect not stated beside the values
setup.conditions: 30 µM
measured.metric: Percent Effect (%)
Give bare numbers, in %.

Recorded results for 8 molecules are shown here.
- molecule: "Cc1cccn2c(=O)cc(CN3CCCCC3Cn3cncn3)nc12 (stereo unspecified)"
  Percent Effect / %: -1.37
- molecule: "COc1ccc(C)cc1CSCCn1nc2ccccn2c1=O"
  Percent Effect / %: -1.24
- molecule: "CSc1nccn1-c1cccc(C(=O)NCc2nnc(C)n2C)c1"
  Percent Effect / %: -0.262
- molecule: "CCNC(=O)C1CCN(Cc2csc(-c3ccc(C)o3)n2)CC1"
  Percent Effect / %: 2.01
- molecule: "CCC1=N[C@@]2(CC[C@@H]3CN(S(=O)(=O)CC)C[C@@H]32)C(=O)N1CC(C)C"
  Percent Effect / %: -1.61
- molecule: "Cc1ccc(C(=O)N2CCN(S(C)(=O)=O)CC2)cc1N1CCNC1=O"
  Percent Effect / %: 3.73
- molecule: "CCN(Cc1nc2c(cnn2C)c(=O)[nH]1)Cc1cccs1"
  Percent Effect / %: -1.29
- molecule: "CC1CCN(c2ncc3c(n2)CN(c2ccccc2)C3=O)CC1"
  Percent Effect / %: -0.285

# batch: return Percent Effect for each of the 3 molecules below
1. CC(C)c1noc(CCCC(=O)N2CCC(Cc3cccnc3)CC2)n1
2. CC(C)c1nc(C(=O)N2CCCC(n3cncn3)C2)c[nH]1 (stereo unspecified)
3. Clc1ccccc1C1(c2ccnc(-c3ccncc3)n2)CCNCC1

[1.06, 3.03, 3.38]
